species: Rattus norvegicus; test: DrugMatrix - Regimen: Daily Repeat; assay type: toxicity, organism-based, Sprague-Dawley; design: regimen Daily Repeat, gender Male, age 6-8 weeks; conditions: in vivo, ip, 40 mg/kg, […], tissue Blood, route intraperitoneal, dose level High, time 28 day, vehicle 100 % SALINE
measurement.name: ABSOLUTE LYMPHOCYTE (cells/µL)
Could you give me the number in cells/µL? Just the number is fine.

Data request: Which ABSOLUTE LYMPHOCYTE reading was recorded for the compound NC[C@H]1O[C@H](O[C@H]2[C@H](O)[C@@H](O[C@H]3O[C@H](CO)[C@@H](O)[C@H](N)[C@H]3O)[C@H](N)C[C@@H]2N)[C@H](N)C[C@@H]1O ?
Data returned: 11000
